# System Under Test: Rat recombinant PDE10A (rPDE10A2) (Rattus norvegicus)
# Construct: made in house; host or cells: Sf9 insect cells, baculovirus
# Sequence (Q9QYJ6 1-794): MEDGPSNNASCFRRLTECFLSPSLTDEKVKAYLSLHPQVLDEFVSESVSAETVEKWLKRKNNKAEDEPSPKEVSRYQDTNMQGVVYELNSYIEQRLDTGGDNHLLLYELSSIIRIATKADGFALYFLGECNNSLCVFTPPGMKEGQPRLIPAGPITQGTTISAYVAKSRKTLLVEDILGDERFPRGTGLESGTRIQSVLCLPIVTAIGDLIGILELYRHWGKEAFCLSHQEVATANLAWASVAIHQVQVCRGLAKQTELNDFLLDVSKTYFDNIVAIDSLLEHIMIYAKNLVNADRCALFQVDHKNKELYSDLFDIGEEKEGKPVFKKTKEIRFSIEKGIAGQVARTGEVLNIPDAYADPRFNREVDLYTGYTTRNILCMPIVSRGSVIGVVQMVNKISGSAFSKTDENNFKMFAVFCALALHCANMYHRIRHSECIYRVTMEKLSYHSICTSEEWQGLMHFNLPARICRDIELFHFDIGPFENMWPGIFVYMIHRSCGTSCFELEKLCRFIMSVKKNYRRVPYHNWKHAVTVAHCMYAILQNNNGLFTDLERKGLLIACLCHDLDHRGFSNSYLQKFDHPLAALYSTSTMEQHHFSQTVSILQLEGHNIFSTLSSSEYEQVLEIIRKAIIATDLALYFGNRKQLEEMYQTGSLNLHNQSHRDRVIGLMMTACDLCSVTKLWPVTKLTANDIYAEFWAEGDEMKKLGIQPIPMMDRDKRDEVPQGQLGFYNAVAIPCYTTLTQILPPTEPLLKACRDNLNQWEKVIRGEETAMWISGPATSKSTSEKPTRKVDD
# Assay Info: In vitro assay PDE10A (SPA, 3H-cAMP)
# Assay type: biochemical
# Test Context: pIC50 corresponds to the -log IC50 expressed in mol/L; read-out: PDE10A2 pIC50 (converted)
Could you mark each record 1.0 if its IC50 falls strictly under 100 nM, and 0.0 if it equals or exceeds it?

[
  {
    "Compound": "Cc1nc2c(N3CCOCC3)nccn2c1-c1cnn(CC(=O)C2CC2)c1 [compound 98]",
    "System Under Test": "Rat recombinant PDE10A (rPDE10A2) (Rattus norvegicus)",
    "Group": 0.0
  },
  {
    "Compound": "COCCCn1cc(-c2c(C)nc3c(-c4ccncc4)nccn23)cn1 [compound 102]",
    "System Under Test": "Rat recombinant PDE10A (rPDE10A2) (Rattus norvegicus)",
    "Group": 0.0
  },
  {
    "Compound": "COC(C)(C)c1ccc(-c2c(C)nc3c(N4CCOCC4)nccn23)cn1 [compound 30]",
    "System Under Test": "Rat recombinant PDE10A (rPDE10A2) (Rattus norvegicus)",
    "Group": 0.0
  },
  {
    "Compound": "Cc1nc2c(N3CCOCC3)nccn2c1-c1cnn(CCCF)c1 [compound 86]",
    "System Under Test": "Rat recombinant PDE10A (rPDE10A2) (Rattus norvegicus)",
    "Group": 0.0
  },
  {
    "Compound": "COc1nc2c(N3CCOCC3)nccn2c1-c1ccc(CC(C)(C)OC)nc1 [compound 95]",
    "System Under Test": "Rat recombinant PDE10A (rPDE10A2) (Rattus norvegicus)",
    "Group": 0.0
  },
  {
    "Compound": "CCC(COC)n1cc(-c2c(C)nc3c(N4CCOCC4)nccn23)cn1 (stereo not drawn) [compound 111]",
    "System Under Test": "Rat recombinant PDE10A (rPDE10A2) (Rattus norvegicus)",
    "Group": 0.0
  },
  {
    "Compound": "Cc1nc2c(N3CCOCC3)nccn2c1-c1cnn(Cc2ccc(Cl)cc2)c1 [compound 121]",
    "System Under Test": "Rat recombinant PDE10A (rPDE10A2) (Rattus norvegicus)",
    "Group": 0.0
  },
  {
    "Compound": "Cc1nc2c(-c3ccncc3)nccn2c1-c1cnn(CC2CCCCO2)c1 (single isomer, unassigned) [compound 80]",
    "System Under Test": "Rat recombinant PDE10A (rPDE10A2) (Rattus norvegicus)",
    "Group": 0.0
  },
  {
    "Compound": "Cc1nc2c(N3CCOCC3)nccn2c1-c1ccc(OCC2CC2)nc1 [compound 134]",
    "System Under Test": "Rat recombinant PDE10A (rPDE10A2) (Rattus norvegicus)",
    "Group": 0.0
  },
  {
    "Compound": "Cc1nc2c(N3CCOCC3)nccn2c1-c1cnn(CCOC(C)C)c1 [compound 127]",
    "System Under Test": "Rat recombinant PDE10A (rPDE10A2) (Rattus norvegicus)",
    "Group": 0.0
  },
  {
    "Compound": "FC(F)(F)Cn1cc(-c2c(C3CC3)nc3c(N4CCOCC4)nccn23)cn1 [compound 46]",
    "System Under Test": "Rat recombinant PDE10A (rPDE10A2) (Rattus norvegicus)",
    "Group": 1.0
  },
  {
    "Compound": "CCC(COC)n1cc(-c2c(C)nc3c(N4CCOCC4)nccn23)cn1 (single isomer, unassigned) [compound 74]",
    "System Under Test": "Rat recombinant PDE10A (rPDE10A2) (Rattus norvegicus)",
    "Group": 1.0
  },
  {
    "Compound": "CCOCCn1cc(-c2c(C)nc3c(-c4ccncc4)nccn23)cn1 [compound 128]",
    "System Under Test": "Rat recombinant PDE10A (rPDE10A2) (Rattus norvegicus)",
    "Group": 0.0
  },
  {
    "Compound": "COCCCn1cc(-c2c(C)nc3c(N4CCOCC4)nccn23)cn1 [compound 68]",
    "System Under Test": "Rat recombinant PDE10A (rPDE10A2) (Rattus norvegicus)",
    "Group": 1.0
  },
  {
    "Compound": "Cc1nc2c(N3CCOCC3)nccn2c1-c1ccc(C2CCOCC2)nc1 [compound 25]",
    "System Under Test": "Rat recombinant PDE10A (rPDE10A2) (Rattus norvegicus)",
    "Group": 0.0
  },
  {
    "Compound": "COC(C)(C)COc1ccc(-c2c(C)nc3c(-c4ccncc4)nccn23)cn1 [compound 2]",
    "System Under Test": "Rat recombinant PDE10A (rPDE10A2) (Rattus norvegicus)",
    "Group": 0.0
  },
  {
    "Compound": "Cc1nc2c(N3CCOCC3)nccn2c1-c1cnn(CC2CC2(F)F)c1 (single isomer, unassigned) [compound 64]",
    "System Under Test": "Rat recombinant PDE10A (rPDE10A2) (Rattus norvegicus)",
    "Group": 1.0
  },
  {
    "Compound": "Cc1cc(-c2c(C)nc3c(N4CCOCC4)nccn23)ccn1 [compound 133]",
    "System Under Test": "Rat recombinant PDE10A (rPDE10A2) (Rattus norvegicus)",
    "Group": 0.0
  }
]
